- TARGET UNDER TEST: T1, Cynomolgus CD3εδ Fc heterodimer (Cy CD3ε Fc / CD3δ Fc-HIS) (cynomolgus, UniProt Q95LI8 22-100)
- T1 chain 1: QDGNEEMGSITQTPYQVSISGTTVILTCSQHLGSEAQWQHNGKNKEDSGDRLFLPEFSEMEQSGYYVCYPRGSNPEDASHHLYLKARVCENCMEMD
- T1 chain 2: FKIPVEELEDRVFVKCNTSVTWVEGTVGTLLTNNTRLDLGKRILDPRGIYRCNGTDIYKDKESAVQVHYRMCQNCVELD
- MEASUREMENT NOTES: BLI (Octet), IgG on AHC sensor, pH 7.4
ASSAY ENDPOINT: kon (M⁻¹ s⁻¹)
Output spec: scalar in M⁻¹ s⁻¹, unitless text.

Sample records with kon:
| BINDER | kon, M⁻¹ s⁻¹ |
| --- | --- |
| SAD10319_P04_B10 (ADI-57332) (antibody, V domains shown, IgG; also called Ab30) VH: QVQLVQSGAEVKKPGASVKVSCKASGYTFTSTFMHWVRQAPGQRLEWMGFIDAGTGATKYSQKFQGRVTITRDTSASTAYMELSSLRSEDTAVYYCARDAYGHYFYDHWGQGTLVTVSS VL: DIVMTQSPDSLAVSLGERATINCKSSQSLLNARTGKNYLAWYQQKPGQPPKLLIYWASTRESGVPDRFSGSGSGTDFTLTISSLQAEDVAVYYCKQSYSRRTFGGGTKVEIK | 338000 |
| SAD10319_P02_F04 (ADI-57312) (antibody, V domains shown, IgG; also called Ab253) VH: QVQLVQSGAEVKKPGASVKVSCKASGYTFDSYTMHWVRQAPGQRLEWMGYINPDTGATYYSQKFQGRVTITRDTSASTAYMELSSLRSEDTAVYYCARDAYHHYFYDVWGQGTLVTVSS VL: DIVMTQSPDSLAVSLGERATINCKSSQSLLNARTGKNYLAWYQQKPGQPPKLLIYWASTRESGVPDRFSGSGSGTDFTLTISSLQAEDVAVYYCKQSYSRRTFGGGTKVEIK | 257000 |
| SAD10319_P02_A06 (ADI-57320) (antibody, V domains shown, IgG; also called Ab8) VH: QVQLVQSGAEVKKPGASVKVSCKASGYTFDAYAMHWVRQAPGQRLEWMGWIDAGTGATKYSQKFQGRVTITRDTSASTAYMELSSLRSEDTAVYYCARDHYGHYFYDVWGQGTLVTVSS VL: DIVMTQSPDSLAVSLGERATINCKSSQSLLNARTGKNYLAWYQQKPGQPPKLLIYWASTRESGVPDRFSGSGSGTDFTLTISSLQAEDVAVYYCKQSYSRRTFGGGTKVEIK | 383000 |

(Q) # get_value(readout='kon', item= LAD9959_P01_E04 (ADI-57441) (antibody, V domains shown, IgG; also called Ab172) VH: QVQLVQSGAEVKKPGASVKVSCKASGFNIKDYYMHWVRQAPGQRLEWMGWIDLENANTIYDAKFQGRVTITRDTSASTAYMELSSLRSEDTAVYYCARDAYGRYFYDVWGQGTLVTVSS VL: DIVMTQSPDSLAVSLGERATINCKSSQSLLNARTHHNYLAWYQQKPGQPPKLLIYWASTRESGVPDRFSGSGSGTDFTLTISSLQAEDVAVYYCKQSYSRRTFGGGTKVEIK )
(A) 210000
